Activity by entry:
target: Amyloid-beta precursor protein (Homo sapiens); assay: Inhibition of amyloid beta (1 to 42) aggregation in HBP assessed as beta sheet formation at 1:20 protein to compound ratio after 48 hrs by Th-T fluorescence assay relative to control; parameters: scale not given: the % may be the effect or the level left
*1 amine or outer side, *2 acyl side, *3 side chain or, on linkers, in order; H or OH if unused. Where a SMILES comes first, the peptide text is derived from it. The star is where a group is joined. CO = O=C([*:1])[*:2]; X14 = OC[C@H](O)CN*
Field: numeric (%). Do not append units.

QUERY: Item: CC(C)C[C@H](NC(=O)NC[C@@H](O)CO)C(=O)N1CCC[C@H]1C(=O)N[C@@H](Cc1ccccc1)C(=O)N[C@@H](Cc1ccccc1)C(=O)N[C@@H](CC(=O)O)C(N)=O ({X14-CO}-LPFFD-NH2) Test system: Amyloid-beta precursor protein (Homo sapiens) Read-out: Activity Value: ?
RESULT: 98.7
